# Tested on: human androgen receptor (hAR) (Homo sapiens)
# Construct: expressed in transfected cells; host or cells: Chinese hamster ovary cells (CHO)
# Sequence (P10275 1-920): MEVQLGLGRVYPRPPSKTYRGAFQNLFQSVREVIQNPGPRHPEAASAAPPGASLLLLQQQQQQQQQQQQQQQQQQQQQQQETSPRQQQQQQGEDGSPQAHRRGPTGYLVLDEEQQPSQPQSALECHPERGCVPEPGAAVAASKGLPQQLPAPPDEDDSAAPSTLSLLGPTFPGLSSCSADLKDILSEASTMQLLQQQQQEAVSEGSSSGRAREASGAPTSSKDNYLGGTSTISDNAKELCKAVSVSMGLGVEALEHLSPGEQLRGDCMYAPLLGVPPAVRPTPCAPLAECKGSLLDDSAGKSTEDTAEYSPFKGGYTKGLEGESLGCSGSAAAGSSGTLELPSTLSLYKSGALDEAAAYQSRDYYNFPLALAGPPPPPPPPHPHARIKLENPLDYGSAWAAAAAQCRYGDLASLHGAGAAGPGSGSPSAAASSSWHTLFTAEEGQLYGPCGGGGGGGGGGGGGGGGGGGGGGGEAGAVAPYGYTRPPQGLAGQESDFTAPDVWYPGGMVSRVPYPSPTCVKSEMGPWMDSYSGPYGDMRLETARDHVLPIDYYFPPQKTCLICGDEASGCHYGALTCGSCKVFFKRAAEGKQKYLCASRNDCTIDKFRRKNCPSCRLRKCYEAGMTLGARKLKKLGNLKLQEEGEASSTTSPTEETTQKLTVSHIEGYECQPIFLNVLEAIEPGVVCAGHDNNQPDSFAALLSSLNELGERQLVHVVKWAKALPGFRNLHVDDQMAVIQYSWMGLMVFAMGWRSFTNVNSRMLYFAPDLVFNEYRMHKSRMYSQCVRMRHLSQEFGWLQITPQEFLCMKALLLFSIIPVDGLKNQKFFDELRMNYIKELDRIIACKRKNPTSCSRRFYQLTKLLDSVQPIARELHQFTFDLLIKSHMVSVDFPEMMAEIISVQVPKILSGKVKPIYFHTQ
# Assay text: Transactivative androgen activity in CHO cells transfected with hAR and MMTV-luciferase reporter, compared with 5α-dihydrotestosterone
# Assay type: cell-based
# Set-up: concentration or dose not given beside the values
# Measurement parameters: incubation 16 h, 37° C., compared with the activity of 5α-dihydrotestosterone
Field: Androgen activity (%). Provide a value for each of the compounds that follow.

Lookup result for C[C@@H]1CC2=CC(=O)CC[C@@H]2[C@H]2CC[C@]3(C)[C@H](O)CC[C@@H]3[C@@H]21 [Ref. comp. 2, reference compound] ; measured Androgen activity (%): 60.5%

Lookup result for C[C@@H]1CC2=CC(=O)CC[C@@H]2[C@H]2CC[C@]3(C)[C@H](O)[C@@H](C)C[C@@H]3[C@@H]21 [Example 1] ; measured Androgen activity (%): 99.0%

Lookup result for C[C@@H]1CC2=CC(=O)CC[C@@H]2[C@H]2CC[C@]3(C)[C@H](O)[C@H](C)C[C@@H]3[C@@H]21 [Example 2] ; measured Androgen activity (%): 38.7%

Lookup result for CC[C@@]1(C)C[C@@H]2[C@H]3[C@H](CC[C@]2(C)[C@@H]1O)[C@H]1CCC(=O)C=C1C[C@H]3C [Example 4b] ; measured Androgen activity (%): 24.0%

Lookup result for CC[C@H]1C[C@@H]2[C@H]3[C@H](CC[C@]2(C)[C@@H]1O)[C@H]1CCC(=O)C=C1C[C@H]3C [Example 4a] ; measured Androgen activity (%): 20.0%

Lookup result for C[C@@H]1CC2=CC(=O)CC[C@@H]2[C@H]2CC[C@@]3(C)[C@H](CC(C)(C)[C@H]3O)[C@@H]21 [Example 3] ; measured Androgen activity (%): 78.5%
